- Read-out: Monokine induced gamma interferon (MIG), CXCL9 (gene 4283)
- Experiment Summary: BSK_SAg_MIG: BioMAP Diversity Plus: SAg Assay for Monokine induced gamma interferon (MIG) Biomarker Activity (AID 2283092)
- Condition Notes: primary human HUVEC with PBMC; actives raise or lower the signal
Activity calls are given as the source filed them. The calls were made as follows: active = hit-call score of the fitted dose curve at least 0.9, where 1 is the maximum; inactive = score below 0.9.
API: response.call in active, inactive

Status in this test for CCOP(=S)(NC(C)C)Oc1ccccc1C(=O)OC(C)C (centres undefined) ?
inactive

What about this compound? O=C(O)C(F)(F)C(F)(F)C(=O)O
inactive

What about this compound? COC(=O)C(F)(F)C(F)(F)OC(F)(C(F)(F)F)C(F)(F)OC(F)=C(F)F (centres undefined)
inactive

What about this compound? Nc1ccc([N+](=O)[O-])cc1Cl
inactive

What about this compound? CCOP(=S)(S)OCC
inactive

What about this compound? O=c1ssc(Cl)c1Cl
active

What about this compound? CCCCc1ccccc1
inactive

What about this compound? N#Cc1c(-c2ccc(Cl)cc2)[nH]c(C(F)(F)F)c1Br
active

What about this compound? CC(C)(C)c1ccccc1OP(=O)(Oc1ccccc1)Oc1ccccc1
active

What about this compound? O=P1(N(CCCl)CCCl)NCCCO1 (centres undefined)
inactive

What about this compound? Cc1ccc(N)cc1N
inactive

What about this compound? CCCCOCCOP(=O)(OCCOCCCC)OCCOCCCC
inactive

What about this compound? O=S1(=O)OCC2C(CO1)C1(Cl)C(Cl)=C(Cl)C2(Cl)C1(Cl)Cl (centres undefined)
inactive

What about this compound? C=CC(=O)OCC(CC)(COC(=O)C=C)COC(=O)C=C
active

What about this compound? ClC(Cl)c1ccccc1
inactive

What about this compound? c1ccc2c(c1)Nc1ccccc1S2
inactive

What about this compound? O=[N+]([O-])c1ccccc1
inactive

What about this compound? CCOP(=S)(OCC)SCSc1ccc(Cl)cc1
inactive

What about this compound? CCN(CC)c1ccccc1
inactive

What about this compound? COP(N)(=S)OC
inactive

What about this compound? Nc1ccc2ccccc2c1
inactive

What about this compound? c1ccc2c(c1)sc1ccccc12
inactive

What about this compound? O=S(=O)(F)C(F)(F)C(F)(F)C(F)(F)C(F)(F)C(F)(F)C(F)(F)C(F)(F)C(F)(F)F
inactive

What about this compound? CCCCC(CC)COP(=O)(Oc1ccccc1)Oc1ccccc1 (centres undefined)
inactive

What about this compound? CCCCN(CCCC)N=O
inactive

What about this compound? CCOP(=S)(Oc1ccc([N+](=O)[O-])cc1)c1ccccc1 (centres undefined)
inactive

What about this compound? FC(F)(F)C(F)(C(F)(F)F)C(F)(F)C(F)(F)CC1CO1 (centres undefined)
inactive

What about this compound? Cc1ccc(O)cc1C
inactive

What about this compound? Nc1ccc(Cl)cc1
inactive
